Entries and their cytotoxicity at 10 µM
PROCEDURE DETAILS: Toxicity liver stage against HepG2, at 10uM
Assay type: cell-based
Parameters: test concentration 10 uM, cell line HepG2-A16-CD81EGFP
PARTICULARS: human, HepG2-A16-CD81EGFP cells; read-out: INHIBITION
Your answer is read as %, so omit the unit and give the number.

1) O=C(NCCc1cccs1)C1(N2CCCCC2)Cc2ccccc2C1; -4.86
2) Cc1cccc(COc2ccc(C(C)NC(=O)CNC(N)=O)cc2)c1 (configuration not stated); -20.9
3) Cc1cnc(N2CCCC(c3ccccc3)C2)nc1-c1ccnn1C (configuration not stated); -1.18
4) COc1ccc(N2CCCC3(C2)CN(c2nncs2)CCO3)cc1 (configuration not stated); 4.17
5) Cn1ccnc1SCCNc1ccnc(C(F)(F)F)n1; -50.4

molecule Cc1ccc(N2CCCC(NC(=O)Cc3csc(C)n3)C2=O)cc1 (configuration not stated) , cytotoxicity at 10 µM observed: -1.31

molecule Cn1nnc2c1CCN(C(C(=O)N1CCCCC1)c1ccccc1)C2 (configuration not stated) , cytotoxicity at 10 µM observed: -2.56

molecule Cc1cc(C)nc(N2CCCC(C)(c3[nH]ncc3C(=O)N(C)C)C2)n1 (configuration not stated) , cytotoxicity at 10 µM observed: 7.42

molecule Cc1cc(N(C)C)nc(N2CCN(Cc3nccn3C)CC2)n1 , cytotoxicity at 10 µM observed: -4.05

molecule Cc1cccc(CNC(=O)Nc2ccn(CCN(C)C)n2)c1 , cytotoxicity at 10 µM observed: -4.47

molecule O=C(CCC1CCCC1)N1CCCC(c2ncc3c(n2)CCNC3)C1 (configuration not stated) , cytotoxicity at 10 µM observed: -23

molecule CCOCCNc1nc(C2CCCC2)nc2c1cnn2C , cytotoxicity at 10 µM observed: -11
